system: U251 CNS; experiment: NCI tumour cell line growth inhibition, 48 h
Property Name: TGI (µM)
Numbers only, in µM.

# Compound, Property Name, Measured Result
measured = [
    ("COC(=O)C1=C(C(=O)OC)SC2(S1)C(C(=O)OC)=C(C(=O)OC)Sc1c2ssc1=Nc1ccc(Cl)cc1", "TGI", 2.64),
]

For the compound C=C[C@]1(C)CCC2=C(CCC3C2(C)CCC[C@@]3(C)COC(C)=O)C1 (stereo not given in full) , what TGI is on record?
31.7

* * *

Would you kindly list TGI for each of these molecules?
test system: HOP-62 NSCLC; test: NCI tumour cell line growth inhibition, 48 h

# Molecule, Property Name, Measured Result
data = [
    ("COC(=O)C1(C(=O)OC)N=C(C)OC1/C=C/c1ccccc1 (stereo not given)", "TGI", "> 100 µM"),
]

Count: 5. Required value per item: TGI.
1. CN1CCN(C)C12C=CC=CC21CC1
2. COc1ccc(C(=O)/C=C/c2ccc(OCCSCCCCCCCCCCSCCOc3ccc(/C=C/C(=O)c4ccc(OC)c(OC)c4)cc3)cc2)cc1OC
3. CC(C)NC(=O)CCN(C(=O)O)S(=O)(=O)c1ccc(NC(=O)c2ccccc2)cc1
4. CC(C)Cc1cc2c(cc1O)CCC1C2CC[C@@]2(C)C1CC[C@@H]2O (stereo not given in full)
5. Cn1cc(C2=C(c3cn(C)c4ccccc34)C(=O)NC2=O)c2ccccc21

> 100 µM
> 100 µM
> 100 µM
33.1 µM
> 25 µM

Field: TGI. Fill in for each record below.
1. COC(=O)C1=C(C)C=C(N2CCOCC2)C(C(=O)OC)C1c1ccccc1 (stereo not given)
2. COc1ccc(Nc2cc(C)nc(NCCCNc3ccnc4cc(Cl)ccc34)n2)cc1

1: > 10 µM; 2: 3.93 µM

List the reported TGI of each molecule below.
1. COC(=O)C(Cc1nc2ccccc2nc1C)/C(=N\NC(N)=O)C(=O)Nc1cccc([N+](=O)[O-])c1 (stereo not given)
2. Cc1c2ccncc2c(C)c2c1[nH]c1ccc(OCC(F)(F)F)cc12

> 100 µM
3.03 µM

* * *

system: HOP-92 NSCLC; test: NCI tumour cell line growth inhibition, 48 h
Exercise: for every item that follows, state its recorded TGI.

Before answering, review these 5 worked examples.
# Molecule, System Tested, TGI
rows = [
    ("CCOC(=O)C(NC(=O)c1ccccc1)(Nc1ccc(Cl)cc1C(F)(F)F)C(F)(F)F (stereo not drawn)", "HOP-92 NSCLC", "50.7 µM"),
    ("COC1(O)c2cccc(Cl)c2C(=O)N1C1(C(N)=O)CCCCC1 (stereo not drawn)", "HOP-92 NSCLC", "40.7 µM"),
    ("N/N=c1\\c2ccccc2c2cc3c(cc12)/c(=N/N)c1ccccc13", "HOP-92 NSCLC", "> 100 µM"),
    ("O=C(/C(=C\\c1ccc(Cl)cc1)c1ccccc1)c1ccccc1", "HOP-92 NSCLC", "> 100 µM"),
    ("O=c1ssc(Cl)c1Cl", "HOP-92 NSCLC", "> 10 µM"),
]

Give TGI for all molecules that follow.
1. CCOC(=O)c1c2c(c(O)c3ccccc3c(O)n(Cc3ccccc3)c1C)C(=O)C=CC2=O
2. CC(=O)Nc1ccc(COC(O)CN2CCCCC2)cc1[N+](=O)[O-] (stereo not drawn)
3. CC(=O)OC12c3ccccc3-c3ccccc3C1C1C(=O)OC(=O)C12 (stereo not drawn)

1: > 100 µM; 2: > 100 µM; 3: > 10 µM

Hi team, please reply with TGI for each item in this list.
1. Cc1ccc2nc(C=Nc3ccc(Cl)cc3)cc(C)c2c1
2. Clc1cc(Cl)cc(N2N=C(c3cccc(Nc4ccncc4)c3)CC2c2ccc3c(c2)OCO3)c1 (stereo not drawn)
3. CC(=O)OC12COC1CC(O)C1(C)C(=O)C(O)C3=C(C)C(O)CC(O)(C(OC(=O)c4ccccc4)C21)C3(C)C (stereo not drawn)
4. NCCNCc1c2ccccc2c(CNCCN)c2ccccc12
5. CCOP(=O)(OCC)/C(C#N)=C/c1cnc[nH]1
6. CCOC1Oc2ccccc2-c2nc(SC)ncc21 (stereo not drawn)
7. CCCCCCCCn1ccc2cc(NC(=O)Cn3cc(CN4CCCCC4)nn3)ccc21

1. 81 µM
2. 2.82 µM
3. > 100 µM
4. 45.9 µM
5. > 100 µM
6. > 100 µM
7. 2.21 µM

* * *

system: MALME-3M melanoma; test: NCI tumour cell line growth inhibition, 48 h; in the data active = GI50 below about 0.43 µM; inactive = the rest
The categories you may choose from are active, inactive

Some solved entries appear below for comparison.
# Molecule, Class Name
records = [
    ("COc1ccc(C2=NN(C(=O)c3cc(OC)c(OC)c(OC)c3)C(c3ccc(N(C)C)cc3)C2)cc1 (stereo not drawn)", "inactive"),
    ("c1ccc2cc(C[n+]3ccn(CCCCCCCCCCn4cc[n+](Cc5ccc6ccccc6c5)c4)c3)ccc2c1", "active"),
    ("COc1ccc(/C=C2\\C=C(c3ccccc3)N(CCc3ccccc3)C2=O)cc1OC", "inactive"),
    ("COc1ccc2nc3cc(Cl)ccc3c(Sc3ccc([N+](=O)[O-])cc3)c2c1", "inactive"),
    ("CC(=O)c1cc(C(=O)c2ccc3c(c2)Sc2ccccc2N3)c2cc(C)ccn12", "active"),
    ("Cc1ccc(Cl)c(Nc2ccccc2C(=O)O)c1Cl", "inactive"),
]

What did this assay record as the result for CCCCCCCCCCCCOC1C(CNC(=O)C2OC3OC(C)(C)OC3C2NC(=O)Nc2ccc(CC(=O)NC(Cc3ccccc3)C(=O)O)cc2)OC2OC(C)(C)OC21 (stereo not drawn) ?
inactive

Per the records of this test, what outcome belongs to "CN1C/C=C/CCOc2cccc(c2)-c2ccnc(n2)Nc2cccc(c2)C1" ?
active

Give the logged outcome of this assay for the following molecule: "COc1cc(C(=O)Nc2cc(OC)c3ccn(C)c3c2)cc2c1C[C@]1(C)CC[C@@H](O)C(C)(C)[C@H]1O2"
inactive

* * *

system: NCI-H460 lung; assay: NCI tumour cell line growth inhibition, 48 h
Please respond with reported TGI for every item in the list.

List reported TGI for each of these compounds:
1. COC1OC(COC(=O)c2cc(O)c(O)c(O)c2)C(OC(=O)c2cc(O)c(O)c(O)c2)C(OC(=O)c2cc(O)c(O)c(O)c2)C1OC(=O)c1cc(O)c(O)c(O)c1 (stereo not drawn)
2. CC(=O)C1=C(C)N(c2ccc(C)cc2)C2(O)C3=C(C(=O)c4ccccc4C3=O)C(O)=CC12Cl (stereo not drawn)

1: > 100 µM; 2: > 100 µM

Give TGI for all compounds that follow.
1. NN1C(=O)C(CCO)S/C1=N/N=C1/SC(CCO)C(=O)N1N (stereo not drawn)
2. COc1ccc(/C=C2\C=C(c3ccccc3)N(CCc3ccccc3)C2=O)cc1OC
3. COC1(O)c2cccc(Cl)c2C(=O)N1C1(C(N)=O)CCCCC1 (stereo not drawn)
4. COc1ccc(C2CC3(c4ccccc4)ON=C(c4ccccc4)N3c3ccccc3S2)cc1 (stereo not drawn)
5. CC1(C)[C@@H](OC(=O)CCC(=O)O)CC[C@]2(C)[C@H]3C(=O)C=C4[C@@H]5C[C@@](C)(C(=O)O)CC[C@]5(C)CC[C@@]4(C)[C@]3(C)CC[C@@H]12

["> 100 µM", "30.7 µM", "> 100 µM", "> 100 µM", "76 µM"]

What value of TGI has been recorded for this entry: "COc1ccc(/C=C/C(=O)c2ccc(OC)c(OC)c2)cc1O"
11.8 µM

* * *

tested on: SW-620 colon; assay: NCI tumour cell line growth inhibition, 48 h; in the data active means GI50 below about 0.43 µM; inactive means the rest
Log the outcome using a class from active, inactive

Take a look at these entries with their results.
# Compound, Class Name
records = [
    ("COc1cc([C@@H]2C[C@H]2c2cc(SC)n[nH]2)cc(OC)c1OC", "inactive"),
    ("CCCCCCCCn1ccc2cc(NC(=O)Cn3cc(CN4CCCCC4)nn3)ccc21", "inactive"),
    ("OCc1ccc(N2CCc3ccccc3C2)cc1Cl", "active"),
]

Tell me the recorded outcome of this test for CC(=O)N1N=C2/C(=C/c3ccc(Cl)cc3)CC(C)CC2C1c1ccc(Cl)cc1 (stereo not drawn) .
inactive

I'd appreciate the recorded outcome for "O=C(Nc1n[nH]c2nnc(-c3cccnc3)cc12)C1CC1" from this test.
inactive

Which outcome was entered for the compound CC(=O)OC12COC1CC(O)C1(C)C(=O)C(O)C3=C(C)C(O)CC(O)(C(OC(=O)c4ccccc4)C21)C3(C)C (stereo not drawn) in this test?
inactive

* * *

I'd appreciate it if you could supply GI50 values for the items below.
test system: A549 NSCLC; assay: NCI tumour cell line growth inhibition, 48 h

Illustrative cases are given below, each with its answer.
# Molecule, GI50
data = [
    ("CC(=O)N1N=C2/C(=C/c3ccc(Cl)cc3)CC(C)CC2C1c1ccc(Cl)cc1 (stereo not given)", "20.6 µM"),
    ("Cn1c(=O)c(Oc2ccc(F)cc2F)cc2cnc(NC3CCS(=O)(=O)CC3)nc21", "> 25 µM"),
    ("O=c1oc2ccc(Br)cc2c(=O)n1-c1ccc(I)cc1F", "0.717 µM"),
    ("COc1cc(-c2c(C#N)c(N)nc(N3CCOCC3)c2C#N)cc(OC)c1OC", "> 100 µM"),
]

I'd like to know its GI50. The molecule in question is "O=C(c1ccco1)c1c(C(F)(F)F)n([O-])c2ccc(Cl)cc2[n+]1=O"
0.615 µM
